# SYSTEM: dopamine D2 receptor (Rattus norvegicus, UniProt P61169)
# Sequence (P61169 whole entry): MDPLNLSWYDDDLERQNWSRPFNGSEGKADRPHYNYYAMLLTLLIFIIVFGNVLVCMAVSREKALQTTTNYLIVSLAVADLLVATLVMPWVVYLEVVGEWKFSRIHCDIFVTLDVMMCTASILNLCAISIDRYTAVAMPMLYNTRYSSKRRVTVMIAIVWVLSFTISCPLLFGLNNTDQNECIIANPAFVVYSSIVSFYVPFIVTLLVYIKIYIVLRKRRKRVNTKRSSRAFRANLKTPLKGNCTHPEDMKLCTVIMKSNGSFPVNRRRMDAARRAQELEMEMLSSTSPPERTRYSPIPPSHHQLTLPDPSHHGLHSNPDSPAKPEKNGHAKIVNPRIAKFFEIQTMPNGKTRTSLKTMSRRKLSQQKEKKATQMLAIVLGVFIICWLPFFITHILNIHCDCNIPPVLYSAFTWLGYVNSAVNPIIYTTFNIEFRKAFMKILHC
# PROTOCOL_TEXT: Radioligand competition assay, affinity at rat D2 receptors ([3H]nemonapride)
# Type: binding
# RUN_CONDITIONS: rat receptors; radioligand [3H]nemonapride; read-out: Affinity at rat receptors, D2
REPORTED_METRIC: pKi
Answers are plain numbers, as −log10 of the molar value.

Provide pKi, tested on dopamine D2 receptor (Rattus norvegicus, UniProt P61169), for COc1cc2c3c(c1)-c1c(O)cccc1CC3N(C)CC2 (stereo not shown) [Compound 3, 2-Methoxy-11-hydroxyaporphine] .
6.63
